- Study System: Peroxisome proliferator-activated receptor gamma (Homo sapiens, UniProt P37231)
- Sequence (P37231 whole entry): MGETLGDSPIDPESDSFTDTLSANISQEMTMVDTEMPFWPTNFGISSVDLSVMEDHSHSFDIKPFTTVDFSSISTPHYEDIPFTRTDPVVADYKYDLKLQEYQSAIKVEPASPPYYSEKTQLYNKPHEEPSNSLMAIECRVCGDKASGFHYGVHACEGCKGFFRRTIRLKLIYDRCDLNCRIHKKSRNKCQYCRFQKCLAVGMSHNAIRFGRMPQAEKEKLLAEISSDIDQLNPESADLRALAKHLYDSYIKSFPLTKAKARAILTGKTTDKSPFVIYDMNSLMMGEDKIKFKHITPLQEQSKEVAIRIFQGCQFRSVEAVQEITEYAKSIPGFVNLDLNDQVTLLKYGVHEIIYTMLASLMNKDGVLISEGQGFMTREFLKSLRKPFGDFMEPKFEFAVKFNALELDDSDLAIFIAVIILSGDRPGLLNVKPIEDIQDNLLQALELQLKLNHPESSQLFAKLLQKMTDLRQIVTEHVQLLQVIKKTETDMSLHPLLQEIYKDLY
- Type: functional, cell-based, CV-1
- Description: Agonist potency at PPARgamma in CV1 cells by cell based transient transfection assay
pEC50: −log10 of the molar value.
Value Type: pEC50

Consider the molecule "Cc1nc(-c2ccc(C(F)(F)F)cc2)sc1C(=O)Nc1ccc(OC(C)(C)C(=O)O)cc1" . State its measured pEC50.
< 5.00

Consider the molecule "Cc1nc(-c2ccc(N)cc2)sc1C(=O)NCc1ccc(OC(C)(C)C(=O)O)cc1" . State its measured pEC50.
< 5.00

Consider the molecule "Cc1nc(-c2ccc(Cl)cc2)sc1C(=O)NCc1ccc(OC(C)(C)C(=O)O)cc1" . State its measured pEC50.
< 5.00

Consider the molecule "Cc1nc(-c2ccc(O)cc2)sc1C(=O)NCc1ccc(OC(C)(C)C(=O)O)cc1" . State its measured pEC50.
< 5.00

Consider the molecule "Cc1nc(-c2cccc(C(F)(F)F)c2)sc1C(=O)NCc1ccc(OC(C)(C)C(=O)O)cc1" . State its measured pEC50.
< 4.60

Consider the molecule "Cc1nc(-c2ccc(F)cc2)sc1C(=O)NCc1ccc(OC(C)(C)C(=O)O)cc1" . State its measured pEC50.
< 5.00

Consider the molecule "CC(C)(Oc1ccc(CNC(=O)c2sc(-c3ccc(C(F)(F)F)cc3)nc2C(F)(F)F)cc1)C(=O)O" . State its measured pEC50.
6.14
